From: the RepoRT retention time repository (doi:10.1016/j.aca.2011.12.065)

- ASSAY_DETAILS: RP, Waters ACQUITY UPLC BEH C18, 100 × 2.1 mm, 1.7 µm; A: water + 0.1% formic acid, pH 3; B: 80% acetonitrile + 20% acetone + 0.1% formic acid, pH 3; gradient (min/%B) 0/0 6/100
- STUDY_CONDITIONS: stereoisomer not certain
Where a name gives a salt, the structure may show the parent alone.
METRIC: LC retention time

Look up and report measured LC retention time for this entry: O=C(O)CNC(=O)c1ccccc1
1.77 min

Look up and report measured LC retention time for this entry: O=C(O)C1OC(Oc2c[nH]c3ccccc23)C(O)C(O)C1O (stereo not drawn) [indoxyl beta-d-glucuronide cyclohexylammonium salt]
1.7 min

Look up and report measured LC retention time for this entry: CC(=O)Nc1ccc(C(=O)O)cc1
1.71 min

Look up and report measured LC retention time for this entry: CCC=CCC=CCC=CCC=CCC=CCCCC(=O)OCC(O)COP(=O)([O-])OCC[N+](C)(C)C (stereo unspecified)
4.02 min

Look up and report measured LC retention time for this entry: OCC1OC(Oc2c[nH]c3ccccc23)C(O)C(O)C1O (stereo not drawn) [indoxyl beta-d-glucoside]
1.7 min

Look up and report measured LC retention time for this entry: CC(O)C1NC(=O)C2CCCN2C1=O (stereo unspecified)
1.37 min

----------
- ASSAY_DETAILS: RP, Waters ACQUITY UPLC HSS T3, 100 × 2.1 mm, 1.8 µm; A: water + 0.1% formic acid, pH 3; B: 30% methanol + 70% acetonitrile + 0.1% formic acid, pH 3; gradient (min/%B) 0.0/5 1.0/8 2.0/15 3.0/40 4.0/70 4.5/100 5.0/100 6.4/100 6.6/5.0 6.8/5.0 7.0/5.0
- STUDY_CONDITIONS: stereoisomer not certain
METRIC: LC retention time (min)
Field: numeric (min). Do not append units.

Answered examples (3):
COMPOUND | QUANTITY_UNIT | LC retention time
CC(=O)Nc1c(N)[nH]c(=O)n(C)c1=O | min | 0.666
CC(CCC(=O)NCC(=O)O)C1CCC2C3CCC4CC(O)CCC4(C)C3CCC12C (stereo not given) | min | 4.61
Cn1c(=O)c2c(ncn2C)n(C)c1=O | min | 3.13

Look up and report measured LC retention time for this entry: O=C(O)/C=C/c1cccc(O)c1 [trans-3-hydroxycinnamic acid]
3.53

Look up and report measured LC retention time for this entry: CCCc1oc(CCC(=O)O)c(C(=O)O)c1C
4.08

Look up and report measured LC retention time for this entry: C[N+](C)(C)[O-]
0.468

Look up and report measured LC retention time for this entry: CC(O)C1NC(=O)C2CCCN2C1=O (stereo not given)
1.54

Look up and report measured LC retention time for this entry: CC(CCC(=O)NCCS(=O)(=O)O)C1CCC2C3C(O)CC4CC(O)CCC4(C)C3CC(O)C12C (stereo not given)
4.26

----------
- ASSAY_DETAILS: RP, Waters ACQUITY UPLC BEH C18, 100 × 2.1 mm, 1.7 µm; A: water + 0.1% formic acid, pH 3; B: 80% acetonitrile + 20% acetone + 0.1% formic acid, pH 3; gradient (min/%B) 0/0 6/100
- STUDY_CONDITIONS: stereoisomer not certain
METRIC: LC retention time (min)
Field: numeric (min). Do not append units.

Answered examples (5):
COMPOUND | NUMERIC_RESULT
CC(O)C(C)C(=O)O (stereo unspecified) [3-Hydroxy-2-methylbutyric acid] | 1.51
Cn1c(=O)[nH]c(=O)c2[nH]cnc21 | 1.28
O=C(O)CCCCCCCC(=O)O | 2.26
O=c1[nH]cc(C2OC(CO)C(O)C2O)c(=O)[nH]1 (stereo unspecified) | 1.16
CC(=O)C(C)C(=O)O (stereo unspecified) | 1.61

Look up and report measured LC retention time for this entry: Cn1c(=O)[nH]c2[nH]c(=O)[nH]c2c1=O
1.28

Look up and report measured LC retention time for this entry: Nc1c(O)cccc1C(=O)CC(N)C(=O)O (racemic) [3-hydroxy-dl-kynurenine]
1.03

Look up and report measured LC retention time for this entry: CNC(C)(C)C(=O)O
0.712

----------
- ASSAY_DETAILS: RP, Waters ACQUITY UPLC HSS T3, 100 × 2.1 mm, 1.8 µm; A: water + 0.1% formic acid, pH 3; B: 30% methanol + 70% acetonitrile + 0.1% formic acid, pH 3; gradient (min/%B) 0.0/5 1.0/8 2.0/15 3.0/40 4.0/70 4.5/100 5.0/100 6.4/100 6.6/5.0 6.8/5.0 7.0/5.0
- STUDY_CONDITIONS: stereoisomer not certain
Entries annotated with measured LC retention time
Don't forget the unit after the value.

Answered examples (2):
MOLECULE | LC retention time
Nc1c(O)cccc1C(=O)CC(N)C(=O)O (racemic) [3-hydroxy-dl-kynurenine] | 0.786 min
CC(CCC(=O)NCC(=O)O)C1CCC2C3C(O)CC4CC(O)CCC4(C)C3CCC12C (centres undefined) | 4.23 min

Look up and report measured LC retention time for this entry: OCC1OC(Oc2c[nH]c3ccccc23)C(O)C(O)C1O (stereo not drawn) [indoxyl beta-d-glucoside]
2.92 min

Look up and report measured LC retention time for this entry: O=C(O)Cc1c[nH]c2ccccc12
3.63 min

Look up and report measured LC retention time for this entry: CNCC(=O)O
0.468 min

Look up and report measured LC retention time for this entry: CC(CCC(=O)NCC(=O)O)C1CCC2C3CCC4CC(O)CCC4(C)C3CC(O)C12C (centres undefined)
4.44 min

----------
Entries annotated with measured LC retention time
- ASSAY_DETAILS: RP, Waters ACQUITY UPLC HSS T3, 100 × 2.1 mm, 1.8 µm; A: water + 0.1% formic acid, pH 3; B: 30% methanol + 70% acetonitrile + 0.1% formic acid, pH 3; gradient (min/%B) 0.0/5 1.0/8 2.0/15 3.0/40 4.0/70 4.5/100 5.0/100 6.4/100 6.6/5.0 6.8/5.0 7.0/5.0
- STUDY_CONDITIONS: stereoisomer not certain
Field: numeric (min). Do not append units.

Answered examples (5):
COMPOUND | QUANTITY_UNIT | NUMERIC_RESULT
NC(=O)c1cccnc1 [nicotinamide] | min | 0.722
OC1C(O)C(O)C(O)C(O)C1O (stereo unspecified) | min | 0.465
CN1CC(=O)NC1=N | min | 0.467
Nc1ncnc2c1ncn2C1OC(CO)C(O)C1O (stereo unspecified) | min | 0.857
Cn1c[n+](C2OC(CO)C(O)C2O)c2nc(N)[nH]c(=O)c21 (stereo unspecified) | min | 0.688

Lab note: next compound to report on.
Look up and report measured LC retention time for this entry: Cn1cncc1CC(NC(=O)CCN)C(=O)O (stereo unspecified)
0.441

----------
- ASSAY_DETAILS: RP, Waters ACQUITY UPLC HSS T3, 100 × 2.1 mm, 1.8 µm; A: water + 0.1% formic acid, pH 3; B: 30% methanol + 70% acetonitrile + 0.1% formic acid, pH 3; gradient (min/%B) 0.0/5 1.0/8 2.0/15 3.0/40 4.0/70 4.5/100 5.0/100 6.4/100 6.6/5.0 6.8/5.0 7.0/5.0
- STUDY_CONDITIONS: stereoisomer not certain
Give Condition met when the value for LC retention time is at least 3 min. Give Condition not met when it is less.

# bool: LC retention time of CC(C)c1cc2c(c(O)c1O)C13CCCC(C)(C)C1CC2OC3=O (centres undefined) >= 3 min
Condition met

# bool: LC retention time of COc1ccc(O)c(C(=O)O)c1 [2-hydroxy-5-methoxylbenzoic acid] >= 3 min
Condition met

# bool: LC retention time of O=C(O)CCCCC(=O)O >= 3 min
Condition not met

----------
- ASSAY_DETAILS: RP, Waters ACQUITY UPLC BEH C18, 100 × 2.1 mm, 1.7 µm; A: water + 0.1% formic acid, pH 3; B: 80% acetonitrile + 20% acetone + 0.1% formic acid, pH 3; gradient (min/%B) 0/0 6/100
- STUDY_CONDITIONS: stereoisomer not certain
Where a name gives a salt, the structure may show the parent alone.
Entries annotated with measured LC retention time
Don't forget the unit after the value.

Answered examples (8):
COMPOUND | RESULT
CC(C)C(O)C(=O)O (stereo not given) [2-Hydroxy-3-methylbutyric acid] | 1.69 min
CN1C(=O)CCC1c1cccnc1 (single isomer, unassigned; (-)) [(-)-Cotinine] | 1.26 min
CC(=O)CCC(=O)O [levulinic acid] | 1.39 min
NCCc1c[nH]c2ccccc12 [tryptamine hydrochloride] | 1.53 min
CC(C)C1NC(=O)C2CCCN2C1=O (stereo not given) [Cyclic(pro-val)] | 1.74 min
NC(CCCCNCC(=O)O)C(=O)O (stereo not given) [cml] | 0.676 min
COc1cc(C(=O)O)ccc1O [Vanillic acid] | 1.78 min
CCCCCCCCC=CCCCCCCCC(=O)OCC(O)COP(=O)([O-])OCC[N+](C)(C)C (stereo not given) [lysoPC(18:1(9Z)/0:0)] | 4.5 min

Look up and report measured LC retention time for this entry: NCCCC(N)C(=O)O (stereo not drawn) [l-ornithine monohydrochloride]
0.517 min

Look up and report measured LC retention time for this entry: CC(CCC(=O)NCCS(=O)(=O)O)C1CCC2C3CCC4CC(O)CCC4(C)C3CCC12C (stereo not given) [taurolithocholic acid]
3.84 min
